Measured normalized growth, listed per entry.
# Protocol details: chemical genetic growth profiling, strain panel (AID 1159580);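 also: tested at 20 µM; growth read once vehicle control cultures reached saturation at 30 °C; 1 = growth at the plate median or of vehicle wells; lower values mean less growth of the strain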
# Study conditions: S. cerevisiae deletion strains, growth OD, locus YOR136W, strain idh2, hits give low values
Hit rate of the full screen: of about 5,500 compounds, about 2,000 (36%) were called active. Not shown: some 18% with an inconclusive outcome. The list shows a part of the results.
I only need the number, thanks.

Example cases with answers are listed next.
Molecule	normalized growth
CNC(=O)N(C)c1nnc(C(C)(C)C)s1	1.01
O=C(O)c1cc(=O)c2ccccc2[nH]1	0.99
O=c1c(O)c(-c2ccccc2)oc2ccccc12	0.991
O=C(/C=C/c1ccccc1)c1c(O)cc(O)cc1O	0.995

*Q* Look up normalized growth for this molecule: `Cc1cc(O)c2c(c1)C(=O)c1cccc(O)c1C2=O`
*A* 1.01

*Q* Which value of normalized growth has been reported for CC(=O)OC1CCC2(O)CC1(C)CCC1C2CC1(C)C (configuration not stated) in the records?
*A* 0.992

*Q* # query: normalized growth of entry `COc1ccc(/C=C/c2cc(O)cc(O[C@@H]3O[C@H](CO)[C@@H](O)[C@H](O)[C@H]3O)c2)cc1`
*A* 0.992

*Q* GET /values?readout=normalized growth&item= NC(Cc1ccc(Cl)cc1)C(=O)O (configuration not stated)
*A* 0.995

*Q* For `CC(C)N1C(=O)c2ccccc2NS1(=O)=O` , what is its reported normalized growth?
*A* 1

*Q* Which normalized growth is listed for `CC(C)=CCC/C(C)=C/CO` ?
*A* 0.994

*Q* What normalized growth value was documented for this molecule, CN1CCCCC1c1ccc(-c2cccnc2)nc1 (configuration not stated) ?
*A* 0.995

*Q* Query (molecule): COC(=O)C[C@H]1C(C)(C)[C@@H](OC(C)=O)[C@@H]2CC3=C4CC(=O)O[C@@H](c5ccoc5)[C@]4(C)CCC3[C@@]1(C)C2=O (some centres not stated) ; field requested: normalized growth
*A* 0.987

*Q* // returns reported normalized growth for input CC(=O)O[C@@H]1C2CC[C@@H]3C1(C[C@@H](O)[C@@]1(O)[C@@H](C[C@H](O)C1(C)C)[C@]3(C)O)C[C@@]2(C)O (some centres not stated)
*A* 0.995

*Q* Consider the molecule CC1(C)CC23C(=O)CCC(O)C2(C)CCC13 (configuration not stated) and give its measured normalized growth.
*A* 1.01

*Q* Endpoint output: normalized growth of `O=C(/C=C/c1ccc(O)cc1)c1ccc(O)cc1O` . Value?
*A* 0.974

*Q* What does the data say about its normalized growth? Entry: `NS(=O)(=O)c1cc2c(cc1Cl)NCNS2(=O)=O`
*A* 0.997

*Q* Query (molecule): `COc1ccc(NS(=O)(=O)c2ccc(N)cc2)nn1` ; field requested: normalized growth
*A* 0.996
